Test system: A549
PROCEDURE DETAILS: Cytotoxicity against human A549 cells assessed as reduction in cell viability measured after 24 hrs by WST-1 assay
Format: cell-based
CONDITION SUMMARY: A549, 24 h
MEASUREMENT LABEL: EC50 (µM)
The figure you give is taken to be in µM; do not add the unit.

Here's what some known entries look like.
COMPOUND: CCOP(=O)(/C=C/C(NC(=O)[C@H](CC(C)C)NC(=O)[C@H](CO[C@H]1O[C@@H]2O[C@@]3(C)CC[C@H]4[C@H](C)CC[C@@H]([C@H]1C)[C@@]24OO3)NC(=O)OCc1ccccc1)c1ccccc1)OCC (stereo not given in full)
TEST SYSTEM: A549
RESULT VALUE: 3.82
//
COMPOUND: CCOP(=O)(/C=C/C(NC(=O)[C@H](Cc1ccccc1)NC(=O)[C@H](CO[C@H]1O[C@@H]2O[C@@]3(C)CC[C@H]4[C@H](C)CC[C@@H]([C@H]1C)[C@@]24OO3)NC(=O)OCc1ccccc1)c1ccccc1)OCC (stereo not given in full)
TEST SYSTEM: A549
RESULT VALUE: 14.6

Please find the next compound below.
The recorded EC50 with A549 for CCOP(=O)(/C=C/C(NC(=O)[C@H](CC(C)C)NC(=O)[C@@H]1C[C@@H](O[C@H]2O[C@@H]3O[C@@]4(C)CC[C@H]5[C@H](C)CC[C@@H]([C@H]2C)[C@@]35OO4)CN1C(=O)OCc1ccccc1)c1ccccc1)OCC (stereo not given in full) was 1.28
